Tested on: Neuregulin-1 EGF-like domain
Test: binders of neuregulin-1 EGF-like domain, primary screen, biochemical, small-molecule microarray, 635 nm fluorescence (AID 1081);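 note: binding of the protein to compounds printed on small-molecule microarray slides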
Settings: small-molecule microarray binding, higher = more signal
The label depends only on composite z-score: Condition met if it is at least 0.7, Condition not met if it is smaller.

smiles str	class label
CC(=O)OC[C@H]1O[C@H](CC=NO[C@H](C)c2cn([C@@H]3COC[C@H]3O)nn2)C=C[C@@H]1OC(C)=O	Condition not met
COc1ccc(COC(=O)NN=C2C[C@@H](O)[C@@H](O)[C@@H]3[C@@H]4C(=O)N(c5cccc(Oc6ccccc6)c5)C(=O)[C@@H]4CC[C@H]23)cc1	Condition not met
CC(=O)OC[C@H]1O[C@H](CC=NO[C@@H](C)c2cn([C@H](CO)Cc3ccccc3)nn2)C=C[C@@H]1OC(C)=O	Condition met
O=C1[C@H]2CCn3c(=O)n(Cc4cc5c(cc4Cl)OCO5)c(=O)n3[C@H]2[C@H](O)[C@@H]2O[C@H]12	Condition met
CC(=O)OC[C@H]1O[C@H](C#CCCc2ccccc2)C=C[C@@H]1OC(C)=O	Condition not met
C=CC[C@@H]1C=C[C@H](Oc2ccc(C)cc2)[C@@H](COC(=O)NCc2cccc3ccccc23)O1	Condition met

###

Property: composite z-score; scope: individual molecules
System: Lefty1
Assay: Lefty1 binders on small-molecule microarrays, primary screen, biochemical, small-molecule microarray, 635/667 nm fluorescence (AID 1139)
Settings: small-molecule microarray binding, fluorescence 635/667; higher = more signal
observed property: composite z-score

molecule	reading
C[C@@H](c1ccccc1)N1C(=O)[C@H]2[C@H]3[C@H](O)[C@H](O)CC(=NOCc4ccccc4)[C@@H]3CC[C@H]2C1=O	-0.684
CC(C)=CCCC(C)=CCON=C1C[C@@H](O)[C@@H](O)[C@@H]2[C@@H]3C(=O)N(c4cccc(Oc5ccccc5)c4)C(=O)[C@@H]3CC[C@H]12	0.719
COc1ccc(O[C@H]2C=C[C@@H](c3ccccc3)O[C@@H]2CON=C2c3cc(OC)ccc3O[C@H](c3cccc(OC)c3)[C@H]2O)cc1	1.1
O=C1C2=CC[C@H]3C(=O)N(c4ccc(F)cc4F)C(=O)[C@H]3[C@H]2[C@H](O)[C@@H]2O[C@H]12	0.616
CO[C@@H]1COC(=O)[C@H](CCSC)NC(=O)CC=C[C@@H](C)COC(=O)[C@@H]2CCCN2C(=O)CC=C[C@H]1C	1.15
CCOC(=O)[C@H](CC(C)C)NC(=O)CCC1CC(OC(=O)NCc2ccc3c(c2)OCO3)CC2(CCCC(COC(=O)NCCc3ccc(Cl)cc3)O2)O1 (stereo not given in full)	1.14
COC(=O)[C@H](Cc1ccccc1)NC(=O)[C@@H](C)CO	1.5
CCOC(=O)CCN1C(=O)[C@H]2[C@@H]3C(=CC[C@H]2C1=O)C(=O)[C@H]1O[C@H]1[C@H]3O	-0.762
C=CC[C@@H]1C=C[C@H](ON=C[C@@H](NS(=O)(=O)c2ccc(C)cc2)[C@H](C)C=CCC(=O)OC)[C@@H](CO)O1	0.625
C[C@@H]1CC[C@H]2C(=O)O[C@@H](CN=[N+]=[N-])CN2[C@H]1c1ccc(Br)cc1	0.506
O=C1C[C@H](c2ccccc2)[C@H](c2ccc(Br)cc2)O1	0.0985
O=C1[C@H]2[C@H]3[C@H](O)[C@H](O)CC(=NO[C@@H]4O[C@H](CO)[C@@H](O)[C@H](O)[C@H]4O)[C@H]3CC[C@H]2C(=O)N1c1ccc(F)cc1F	-0.152
COC(OC)[C@@H](C)[C@H](OC)[C@@H](C)[C@H](OC)c1ccccc1	0.253
COc1ccc(O[C@H]2C=C[C@@H](c3ccccc3)O[C@@H]2COC(=O)NCc2cccc3ccccc23)cc1	0.0182
CC(=O)OC[C@H]1O[C@H](CC=NOC[C@@H](O)[C@H]2O[C@@H]3OC(C)(C)O[C@@H]3[C@H]2O)C=C[C@@H]1OC(C)=O	0.385

###

Property: composite z-score; scope: individual molecules
Tested on: Plasmodium falciparum Sir2 (PF13_0152, Sir2A)
Assay: pfSir2 binders on small-molecule microarrays, primary screen, biochemical, small-molecule microarray, 635 nm fluorescence (AID 1098);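 note: score merges spot fluorescence intensity with its signal-to-noise ratio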
Settings: small-molecule microarray binding, fluorescence 635 nm; higher = more signal
observed property: composite z-score

smiles str	observed property	reading
COC(=O)CC=C1c2ccccc2[C@H](OC)[C@H]1C	composite z-score	-0.0214
O=C1C[C@@H](O)[C@@H](O)[C@@H]2[C@@H]3C(=O)N(C4CCCCC4)C(=O)[C@@H]3CC[C@@H]12	composite z-score	0.607
COc1ccc(O[C@H]2C=C[C@@H](c3ccccc3)O[C@@H]2COC(=O)CCC(C)=NOC[C@@H](O)COCc2ccco2)cc1	composite z-score	-1.47
CO[C@@H]1COC(=O)[C@@H]2CCCN2C(=O)[C@@H](C)COC(=O)CCC[C@H]1C	composite z-score	0.877

###

Property: z-score; scope: individual compounds
Test: A549 cell viability effects, profiling panel, calcein-AM fluorescence, 48 h, basal (AID 1162); note: test concentration not given here
Settings: higher = more signal

compound	z-score
C[C@@H]1CC[C@H]2C(=O)O[C@@H](CN=[N+]=[N-])CN2[C@H]1c1ccc(Br)cc1	-3.8
C[C@H]1CC[C@H]2C(=O)N[C@H](Cc3ccccc3)C(=O)N2[C@@H]1c1ccccc1	-0.103
CO[C@H]1COC(=O)CCC[C@H](C)[C@H](OC)COC(=O)CC=C[C@@H]1C	1.11
CCN1C(=O)[C@H]2[C@H]3[C@H](O)[C@H](O)CC(=NNC(=O)OCc4ccccc4)[C@@H]3CC[C@H]2C1=O	-0.0627
C#CCCCON=C1C[C@@H](O)[C@@H](O)[C@@H]2[C@@H]3C(=O)N(C4CCCCC4)C(=O)[C@@H]3CC[C@@H]12	-0.205
CCOC(=O)CCN1C(=O)[C@H]2[C@H]3[C@H](O)[C@H](O)CC(=O)[C@@H]3CC[C@H]2C1=O	-0.856
CO[C@@H]1C=CCC(=O)N[C@@H](C)C(=O)OC[C@@H](NS(=O)(=O)c2ccc(C)cc2)[C@H](C)C=CCC(=O)OC[C@H]1C	-0.533
CCN1C(=O)[C@H]2[C@H]3[C@H](O)[C@H](O)CC(=NNC(=O)OCc4ccccc4)[C@H]3CC[C@H]2C1=O	-0.365
CC(CCN1CCCCc2nc(C)c(C)cc21)=NO[C@H](C)c1cn([C@@H]2COC[C@H]2O)nn1	0.368
COC(=O)[C@H](C)NC(=O)CCC1CC(OC(=O)NCc2cccc3ccccc23)CC2(CCCC(COC(=O)NCCC(C)C)O2)O1 (some centres not stated)	0.505
CCN1C(=O)[C@H]2[C@H]3[C@H](O)[C@H](O)CC(=NOC(C)CN4CCCc5nc(C)c(C)cc54)[C@@H]3CC[C@H]2C1=O (some centres not stated)	0.355
CC(C)[C@@H](OCc1ccccc1)[C@H](C)C=NOC[C@@H](O)[C@H]1O[C@@H]2OC(C)(C)O[C@@H]2[C@H]1O	-0.205
CCOC(=O)[C@H](Cc1ccccc1)NC(=O)CCC1CC(OC(=O)NCc2cccc3ccccc23)CC2(CCCC(COC(=O)NCC3CCCCC3)O2)O1 (some centres not stated)	0.391
COC(=O)C1=C(C)N(Cc2ccccc2)C2=C3C(=O)OCC[C@@H]3[C@@](O)(C(=O)OC)C(=O)N2[C@@H]1c1ccccc1	1.62
CCN(CC)CC(O)CN1CCCCc2nc(C)c(C)cc21 (configuration not stated)	-0.0127
CON=C1c2cc(OC)ccc2O[C@H](c2cccc(OC)c2)[C@H]1O	0.744
CCN1C(=O)[C@H]2[C@H]3[C@H](O)[C@H](O)CC(=NO[C@H](C)c4cn([C@@H]5COC[C@H]5O)nn4)[C@@H]3CC[C@H]2C1=O	0.165
COc1ccc(-c2cnnc(CCCn3ccnc3-c3ccccc3)n2)cc1	-0.98
CC(C)(C)N1C(=O)[C@H]2[C@H]3[C@H](O)[C@H](O)CC(=NOC[C@@H](O)COCc4ccco4)[C@H]3CC[C@H]2C1=O	-0.0309
C[C@H]1CC[C@@H](C(=O)O)N[C@@H]1c1cccc(N2CCCC2=O)c1	0.594
CCN1C(=O)[C@H]2[C@H]3[C@H](O)[C@H](O)CC(=NO[C@H](C)c4cn([C@H](CO)Cc5ccccc5)nn4)[C@@H]3CC[C@H]2C1=O	1.01
CON=C(C)CCN1CCc2nc(-c3ccccc3)c(-c3ccccc3)cc2C1	-0.119
CCOC(=O)[C@H](CC(C)C)NC(=O)CCC1CC(OC(=O)NCc2ccc3c(c2)OCO3)CC2(CCCC(COC(=O)NCCOC)O2)O1 (some centres not stated)	0.0414
C[C@H]1C=CCC(=O)OC[C@H](C)C(=O)N2CCC[C@H]2C(=O)OC1	-0.531
COC(=O)[C@H](C)NC(=O)CCC1CC(OC(=O)NCCc2ccc(F)cc2)CC2(CCCC(COC(=O)NCCOc3ccccc3)O2)O1 (some centres not stated)	0.401
C#CCCCON=C1C[C@@H](O)[C@@H](O)[C@@H]2[C@@H]3C(=O)N([C@@H](C)c4ccccc4)C(=O)[C@@H]3CC[C@@H]12	0.241
O=C1CCCC=C1C(O)COCc1ccccc1 (configuration not stated)	0.384
O=C1C2=CC[C@H]3C(=O)N(c4ccc(F)cc4F)C(=O)[C@H]3[C@H]2[C@H](O)[C@@H]2O[C@H]12	-0.463
CC(C)=CCCC(C)=CCON=C1[C@H]2CCn3c(=O)n(-c4ccccc4)c(=O)n3[C@H]2[C@H](O)[C@@H]2O[C@H]12	-0.603
CCN1C(=O)[C@H]2[C@H]3[C@H](O)[C@H](O)CC(=NOCC(C)C)[C@H]3CC[C@H]2C1=O	-0.124
CCOC(=O)[C@H](Cc1ccccc1)NC(=O)CCC1CC(OC(=O)NCc2cccc3ccccc23)CC2(CCCC(COC(=O)NCCOc3ccccc3)O2)O1 (some centres not stated)	0.128
CC(CCN1CCCCc2nc(C)c(C)cc21)=NOC[C@@H](O)[C@H]1O[C@@H]2OC(C)(C)O[C@@H]2[C@H]1O	-0.638

Where these numbers come from: PubChem BioAssay
